Biological target: RSV postfusion F (postF), F ΔFP (Respiratory Syncytial Virus, UniProt P03420 26-513)
Assay: BLI, IgG on anti-human IgG sensor, 100 nM antigen, 1:1 fit
Items are presented alongside their recorded pKd.
Worth noting: pKd values are minus log10 of concentrations stated in mol/L.

Consider the following illustrative entries.
INSERT INTO assay_data (binder, reported_endpoint, obs_value) VALUES
  ('ADI-41466 (antibody, V domains shown, also called Ab 750; Antibody Number 750) VH: QVQLVQSGAEVKKPGASVKVSCKASGYTFNFYYMHWVRQAPGQGLEWMGWINPKSGGTSYAQKFQGRVIMTGDTSISTTYMELSRLRSDDTAVYYCARADTGLELDVWGQGTTVTVSS VL: QSALIQPASVSGSPGQSITISCTGTSSDVGGYNYVSWYQQHPGKAPKLILYDVSKRPSGVSNRFSGSKSGNTASLTISGLQAEDESDYFCSSYTRSNTVVFGGGTKVTVL', 'pKd', 9.42),
  ('ADI-41461 (antibody, V domains shown) VH: QVQLVQSGAEVKKPGASVKVSCRASGYTFSSYDINWVRQATGQGLEWMGWMSPNSANTGYAQKFQGRVTMTRDTSINTAYMELSSLSSEDTAVYYCARFLGYCSGGSCYPGYGMDVWGQGTTVTVSS VL: EIVLTQSPDSLAVSLGERATINCKSSQNVLYSSNNKDYLSWYQQKPGQPPKLLIYWASTRESGVPDRFSGSGSGTDFTLTINSLQAEDVAVYYCQQYYGTPYTFGQGTKLEIK', 'pKd', 9.26),
  ('ADI-41464 (antibody, V domains shown) VH: QVQLVESGPGLVRPSGTLSLTCTVSGDSVNSYRWSWIRQSPGKGLEWIGYISYSGETNYNPSLKSRVSISVGTSRYQFFLKLSSVTAADTATYYCARDKTTIFGVSHYYFGVDVWGQGTTVTVSS VL: DIVMTQTPLSLPVTPGEPASISCRSSQSLLKSDGYNSLDWYLQRPGQSPQLLIYLGSNRASGVPARFSGSGSGTDFTLKISRVEAEDVGVYYCMQALQTPFTFGPGTKVEIK', 'pKd', 9.51),
  ('ADI-41498 (antibody, V domains shown, also called Ab 778; Antibody Number 778) VH: EVQLLESGGGLVKPGGSLRLSCAASGFIFSDYAMNWVRQTPGKGLEWVSSISDSSAYKYYTGSVSGRFTISRDNAKNSLYLQMNDLRPEDTAVFYCARGQWRCSGASCYSPFDSWGQGTLVTVSS VL: SYELTQPPSVSVAPGQTARIPCGGNNIESKNVHWYQQKPGQAPVLVVYDDSDRPSGIPERFSGSNSGSTATLTISRVEAGDEADYYCHVWHRSGDLREVFGSGTKVTVL', 'pKd', 9.66),
  ('ADI-41526 (antibody, V domains shown) VH: QVQLVQSGAEVKKPGASVKVSCEASGYTFTDYYMHWVRQAPGQGLEWMGWINPNSGVTKIAQNFQGRVTMTRDTSITTAYMDLSRLRSDDTAVYYCARVVDGDYDNWFDFWGQGTLVTVSS VL: SYVLTQPPSASGTPGQRVTISCSGSTSNIGTNTVNWYQQPPGMAPKLLIYANNQRPSGVPDRFSGSKSGTSASLAISGLQSEDEADYHCAVWDDSLPGWVFGGGTKLTVL', 'pKd', 9.47),
  ('ADI-41546 (antibody, V domains shown) VH: QVQLVQSGAEVKKPGESLKISCKGSGYSFTNYWIGWVRQMPGKGLEWMGIIFSADSDTRYSPSFQGQVTISADKSISTAYLQWSSLKASDTAMYYCARQWGITGDAFDIWGQGTMVTVSS VL: DIQVTQSPSFLSASVGDRVTITCRASQGISGYLAWYQQKPGKAPKLLIYAASTLQSGVPSRFSGSGSGTEFTLTISSLQPEDFATYYCQQLNSYPYTFGQGTKVEIK', 'pKd', 8.97),
  ('ADI-41494 (antibody, V domains shown, also called Ab 774; Antibody Number 774) VH: EVQLVESGGGLVQPGRSLRLSCTTSGFTFGDYAVTWVRQAPGKGLEWIGIMKSKTYRGTTDYAASLRGRFSISRDDSKSIAYLQMTSLKSEDTGVYYCVRGHDYGDPFDYWGQGTLVTVSS VL: QSVLTQPASVSGSPGQSITISCTGGSSDVGYYNYVSWYQQHPGKAPKLLIYDVNNRPSGVSDRFSGSKSGNTASLTISGLQPEDEADYYCSSYTRSRTWVFGGGTKLTVL', 'pKd', 9.36),
  ('ADI-41527 (antibody, V domains shown, also called Ab 799; Antibody Number 799) VH: EVQLLESGGGLVQPGGSLRLSCAASGFTFTSYWMSWVRQAPGQGLEWVATIKQDGSEKYYVDSVKGRFTISRDNAKNSLYLQMNSLGAEDTAVYYCARDMYCSTTTCYFFETYYYNGMDVWGQGTTVTVSS VL: DIRLTQSPSSVSASVGDRVTITCRASQVTSTWLAWYQQNPGKAPKLLIYAASRLQSGVPSRFSGSGSGTEFTLTISSLQPEDFATYYCQQANSFPLTFGGGTKVEIK', 'pKd', 9.47);

Q) Which value of pKd has been reported for ADI-41477 (antibody, V domains shown, also called Ab 760; Antibody Number 760) VH: QVQLVQSGAEVKKPGASVRVSCKASGYPFISYYIHWVRQAPGQGLEWMGMINTNGGSTHYAQKFQGRVTMTRDTSTTTIYMELSRLKSEDTAYYFCARDNTETVLHGFWSGYGSYLDYWGQGTLVTVSS VL: EIVLTQSPGTLSLSPGGRATLSCRASQSVTSSYLAWYQQRPGQAPRLLIYGASSRAAGIPDRFSGSGSGTDFTLTISRLEPEDFAVYYCQQYGSAPLTFGGGTKLEIK in the records?
A) 9.30

Q) Reported pKd, binder ADI-41482 (antibody, V domains shown) VH: QVQLVQSGAEVKKPGSSVKVSCKASGGTFGSYTINWVRQAPGQGLEWMGGIIPIFGATNYAQNFQGRVSITADKSTATAYMDLISLRSEDTAVYYCARLGRSSPLNSCTTTSCYFWGRGMDVWGQGTTVTVSS VL: QSVLIQPASVSGSPGQSITISCTGTISDVGIYNYVSWYQQHPGKAPKLIISDVSDRPSGVSNRFSGSKSGITASLTITGLQAEDEADYYCSSYSSSSTLYVFGTGTKLTVL : ____
A) 8.83
